# System: Mus musculus
# METHOD: In vivo anti-inflammatory activity determined by inhibition of oxazolone-induced allergic contact dermatitis (ACD) in mouse up on tropical application
# Assay type: functional
# Parameters: concentration or dose not given beside the values
Exam item: assign condition met to entries whose Inhibition is below 30% and condition not met to entries at or above 30%. Note that a value of exactly 30% receives condition not met.

Below are worked cases with known answers.
- CC1(C)[C@@H](O)CC[C@]2(C)[C@H]3CC[C@@H]4[C@@H](C(N)CCc5ccccc5)CC[C@@]4(C)[C@@H]3CC[C@@H]12 (stereo in doubt; 13B): condition met
- CC(CCc1ccccc1)[C@H]1CC[C@]2(C)[C@@H]1CC[C@H]1[C@H]2CC[C@H]2C(C)(C)[C@@H](O)CC[C@]12C (stereo in doubt; 15B): condition met
- CC(C)CCC(=O)N[C@@H](C)[C@H]1CC[C@]2(C)[C@@H]1CC[C@H]1[C@H]2CC[C@H]2C(C)(C)[C@@H](O)CC[C@]12C: condition not met
- C[C@H](N)[C@H]1CC[C@]2(C)[C@@H]1CC[C@H]1[C@H]2CC[C@H]2C(C)(C)[C@@H](O)CC[C@]12C (stereo in doubt; 5B): condition not met
- CC(NCCc1ccc(S(N)(=O)=O)cc1)[C@H]1CC[C@]2(C)[C@@H]1CC[C@H]1[C@H]2CC[C@H]2C(C)(C)[C@@H](O)CC[C@]12C (stereo partly specified): condition met
- CC1(C)[C@@H](O)CC[C@]2(C)[C@H]3CC[C@@H]4[C@@H](C(O)CCc5ccccc5)CC[C@@]4(C)[C@@H]3CC[C@@H]12 (stereo in doubt; 11A): condition met
- CC(NCC(=O)OC(C)(C)C)[C@H]1CC[C@]2(C)[C@@H]1CC[C@H]1[C@H]2CC[C@H]2C(C)(C)[C@@H](O)CC[C@]12C (stereo in doubt; 4dA): condition not met
- CC1(C)[C@@H](O)CC[C@]2(C)[C@H]3CC[C@@H]4[C@@H](C(CCc5ccccc5)NCc5ccccc5)CC[C@@]4(C)[C@@H]3CC[C@@H]12 (stereo in doubt; 12A): condition met

QUERY: Item CC1(C)[C@@H](O)CC[C@]2(C)[C@H]3CC[C@@H]4[C@@H](C(CCc5ccccc5)NCc5ccccc5)CC[C@@]4(C)[C@@H]3CC[C@@H]12 (stereo in doubt; 12B) : Inhibition beneath 30%, strictly?
RESULT: condition met

QUERY: Item CCCCNC(C)[C@H]1CC[C@]2(C)[C@@H]1CC[C@H]1[C@H]2CC[C@H]2C(C)(C)[C@@H](O)CC[C@]12C (stereo in doubt; 4aB) : Inhibition beneath 30%, strictly?
RESULT: condition met
